experiment: clinical; assay type: in vitro ADME; conditions: human, plasma, Plasma protein binding, mean
readoutType: fraction unbound
# print the numeric value only

Query block: Look up and report measured fraction unbound for this entry: `O=C(c1cccnc1-c1ccncc1)N1CCC(O)(Cc2ccccc2)CC1`
Result block: 0.175

====

test: clinical; conditions: human, in vivo, po, 300 mg, Median (range) tmax, total plasma
readoutType: Tmax
Give the number first and the unit second.

Query block: Please supply the value of reported Tmax for the item `O=C(c1cccnc1-c1ccncc1)N1CCC(O)(Cc2ccccc2)CC1`
Result block: 30 min

====

assay: clinical; conditions: human, in vivo, po, 300 mg, Mean ± SD t½z, total plasma
readoutType: half-life

Query block: Determine its reported half-life: O=C(c1cccnc1-c1ccncc1)N1CCC(O)(Cc2ccccc2)CC1 [soticlestat]
Result block: 3.66 h
